test target: T1, Tag7 (PGLYRP1) protein, recombinant (UniProt O88593)
T1 sequence (O88593 1-182, species assumed, looked up): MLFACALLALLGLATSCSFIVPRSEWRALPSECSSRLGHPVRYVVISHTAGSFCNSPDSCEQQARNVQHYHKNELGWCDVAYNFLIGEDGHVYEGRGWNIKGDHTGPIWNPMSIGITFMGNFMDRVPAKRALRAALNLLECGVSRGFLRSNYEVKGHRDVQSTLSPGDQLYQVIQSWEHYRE
protocol notes: MST; Tag7 labelled with Alexa Fluor 488 (200 nM), preincubated 20 min in the dark at room temperature with 16 concentrations of M7; Monolith NT.115, 10% IR laser power
pKd: −log10 of the molar value.
measured attribute: pKd

                                     binder  measured_attribute  assay_value
0  ELPSFLGKRTDEAAFQK [M7 peptide of Mts1 (S100A4)]                 pKd         8.53

Attribution: paper PMC11203719
